Value source: patent US20240325562A1

Molecular target: T1, recombinant hPDGFRB ectodomain (human, UniProt P09619 33-532)
T1 chain: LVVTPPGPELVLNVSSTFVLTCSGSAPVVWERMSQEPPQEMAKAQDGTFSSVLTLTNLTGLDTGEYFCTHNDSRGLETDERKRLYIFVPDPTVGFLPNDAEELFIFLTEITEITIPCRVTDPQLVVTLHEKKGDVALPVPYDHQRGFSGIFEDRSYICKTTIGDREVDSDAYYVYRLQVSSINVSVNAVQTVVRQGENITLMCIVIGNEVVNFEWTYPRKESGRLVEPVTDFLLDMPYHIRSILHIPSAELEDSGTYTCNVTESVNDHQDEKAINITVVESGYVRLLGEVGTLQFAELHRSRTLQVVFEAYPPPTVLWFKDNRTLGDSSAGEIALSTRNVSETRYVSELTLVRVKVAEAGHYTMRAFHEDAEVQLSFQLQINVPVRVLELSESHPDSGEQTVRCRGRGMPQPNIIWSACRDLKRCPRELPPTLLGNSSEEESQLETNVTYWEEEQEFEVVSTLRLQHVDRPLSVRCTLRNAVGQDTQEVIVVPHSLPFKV
Experiment: binding to immobilized ectodomain
Kindly supply the reported pKd values for the records listed here.
Answers are plain numbers, as −log10 of the molar value.

Would you please look over these solved cases?
1. SP02P (VHH) VHH: EVQLVESGGGLVQAGGSLRLSCAASESISSIEQMGWFRQAPGKQRALVAINTYGGRTVYTNSVEGRFTMSRDSAKNMVYLQMTSLEPEDTAVYYCYAQTTAWRGGVWGQGTQVTVSS = 8.21
2. SP01P (VHH) VHH: EVQLVESGGGLAQAGGSLRLSCVASGNIDSANGMAWYRQAPGKQRELVAHITSGTSYYVASVEGRFTISRANAKDTWYLQMNSLKPEDTGVYYCFPIGLSAHWSQGTQVTVSS = 7.69
3. SP20P (VHH) VHH: EVQLVESGGGLVQAGGSLRLSCVISGRTSPTYPMGWFRQSPGNEREFVASINWSGGWRNYADSVKDRFTISRDDAKNTVYLQMNSLKPEDTAVYYCARGQYSSGTPVYAHEYAYWGQGTQVTVSS = 8.42

Prompt: Give the measured pKd of SP13P (VHH) VHH: EVQLVESGGGLVQPGGSLRLSCAASESIFSINYMAWYRQAPGKQRELVAFSIDGSSTNYVDSVRGRFTASRDNAENTLYLQMNSLKPEDTAVYYCYAQGNTWAAGVWGQGTQVTVSS .
Response: 8.03
